Data credit: paper doi:10.1101/2025.03.12.642038

Molecular target: T1, IRF4 DBD wild-type (Homo sapiens, UniProt Q15306 20-132)
T1 sequence: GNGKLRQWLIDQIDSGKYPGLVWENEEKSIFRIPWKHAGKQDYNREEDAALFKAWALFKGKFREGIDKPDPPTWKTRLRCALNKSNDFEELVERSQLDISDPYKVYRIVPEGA
Assay: SPR steady state; FP: PBS + 0.05% Tween20, 5 nM DNA, 1 h, room temperature; SPR: Biacore S200, SA chip, protein 0.1-4500 nM, running buffer not given in material; errors are SD
Details: protein: recombinant; tags: N-terminal His8-linker-His8-TEV, cleaved; label: 3' biotin; hairpin, TTTT loop
pKd: −log10 of the molar value.

>  <Binder>
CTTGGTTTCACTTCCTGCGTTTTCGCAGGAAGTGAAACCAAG (structured_DNA) [IRE hairpin (biotin)]

>  <pKd>
6.40

$$$$
